Quick reference for GCSF fold induction relative to solvent control among some molecules
test system: G-CSF promoter; assay: G-CSF promoter/luciferase reporter assay (high-throughput screen I), G21 cells; conditions: transcriptional activators, Table 2; 6 h incubation
# output: bare number, implied unit fold

Example results:
>>> observed_value("CN(C)c1ccc(C(=C2C=CC(=[N+](C)C)C=C2)c2ccc(N(C)C)cc2)cc1")
20.39
>>> observed_value("CC(=O)OCC(=O)[C@@]1(O)CC[C@H]2[C@@H]3CCC4=CC(=O)C=C[C@]4(C)[C@H]3[C@@H](O)C[C@@]21C")
0.96
>>> observed_value("O=C(O)c1[nH]c(=O)[nH]c(=O)c1I")
1.02
>>> observed_value("CC(CCl)CBr (stereo not drawn)")
3.27

Then there is this molecule:
**Query** Please look up its GCSF fold induction relative to solvent control: `CC(=O)c1ccc[nH]1`
**Result** 0.43

###

In this section, each of the molecules is paired with its reported GCSF fold inhibition relative to solvent control.
test system: G-CSF promoter; assay: G-CSF promoter/luciferase reporter assay (high-throughput screen I), G21 cells; settings: transcriptional inhibitors, Table 2; 6 h incubation
Output spec: scalar in fold, unitless text.

>>> observed_value("Cc1ccc(P(CCP(c2ccc(C)cc2)c2ccc(C)cc2)c2ccc(C)cc2)cc1")
0.56

Okay, next one:
**Query** Which value of GCSF fold inhibition relative to solvent control has been reported for `CC1=CC(=C(c2cc(C)c(O)c(C(=O)O)c2)c2c(Cl)ccc(S(=O)(=O)O)c2Cl)C=C(C(=O)O)C1=O` in the records?
**Result** 0.73

###

test system: hGH promoter; assay: hGH promoter/luciferase reporter assay (high-throughput screen I), 532 cells; assay type: cell-based, rat; conditions: transcriptional activators, Table 2; 6 h incubation
Tick class 1 if hGH fold induction relative to solvent control is 1 fold or greater. Tick class 0 if hGH fold induction relative to solvent control is less than 1 fold.

>>> group("NC(=O)N1c2ccccc2CCc2ccccc21")
"class 1"
>>> group("O=c1c(O)c(-c2ccc(O)c(O)c2)oc2cc(O)ccc12")
"class 1"
>>> group("CC1(C)[C@@H](C(=O)OCC(F)(F)C(F)(F)C(F)(F)C(F)(F)C(F)(F)C(F)F)CC[C@@]1(C)C(=O)OCC(F)(F)C(F)(F)C(F)(F)C(F)(F)C(F)(F)C(F)F")
"class 0"

**Query** Hi team, for `Nc1ccc2c(c1)C(=O)c1ccccc1-2` , is the recorded hGH fold induction relative to solvent control at or above 1 fold?
**Result** class 0

**Query** Say whether `Nc1ccc(C=CC(=O)O)cc1` shows hGH fold induction relative to solvent control of 1 fold or more.
**Result** class 0

**Query** Determine whether measured hGH fold induction relative to solvent control meets or exceeds 1 fold for `N[C@@H](CCCCNC(=O)OCc1ccccc1)C(=O)O`
**Result** class 1

**Query** Decide: is the reported value of hGH fold induction relative to solvent control for CC(=O)N(C)c1ccc(N)cc1 [Chemical #1374, 4'-Amino-N-methyl-acetanilide] equal to or greater than 1 fold?
**Result** class 0

**Query** Item `CN(C)c1ccc(C(=C2C=CC(=[N+](C)C)C=C2)c2ccc(N(C)C)cc2)cc1` with hGH fold induction relative to solvent control of 1 fold or above?
**Result** class 0

**Query** Is it the case that `ClCc1ccc(Cl)cc1` has hGH fold induction relative to solvent control reaching or exceeding 1 fold?
**Result** class 0

**Query** State whether the measured hGH fold induction relative to solvent control reaches 1 fold, counting equality as reaching it, for `Nc1nccs1`
**Result** class 1

**Query** Quick check: does `COc1c(F)cc(Br)cc1[N+](=O)[O-]` have hGH fold induction relative to solvent control greater than or equal to 1 fold?
**Result** class 0

**Query** Evaluate `Clc1ccc(Sc2cc(Cl)c(Cl)cc2Cl)cc1` : hGH fold induction relative to solvent control at minimum 1 fold?
**Result** class 1

**Query** Reported hGH fold induction relative to solvent control reaches at least 1 fold for `COc1ccc(CC(=O)O)cc1OC` ?
**Result** class 1

**Query** Has `CC(=O)c1ccc[nH]1` a recorded hGH fold induction relative to solvent control greater than or equal to 1 fold?
**Result** class 1

**Query** // inclusive: hGH fold induction relative to solvent control at least 1 fold? input: `CCOC(=O)N1C(=O)c2ccccc2C1=O`
**Result** class 0

**Query** Does `CC(C=O)=CC=CC(C)=CC=CC=C(C)C=CC=C(C)C=CC1=C(C)CCCC1(C)C` have a reported hGH fold induction relative to solvent control of at least 1 fold?
**Result** class 0

**Query** Is reported hGH fold induction relative to solvent control greater than or equal to 1 fold here: `Brc1ccc2c3c(cccc13)CC2`
**Result** class 0

**Query** # check: hGH fold induction relative to solvent control of `Nc1ncnc2c1nc(Br)n2[C@@H]1O[C@H](CO)[C@@H](O)[C@H]1O` is greater than or equal to 1 fold
**Result** class 0

###

tested on: hGH promoter; assay: hGH promoter/luciferase reporter assay (high-throughput screen I), 532 cells; type: cell-based, rat; conditions: transcriptional activators, Table 2; 6 h incubation
Metric: hGH fold induction relative to solvent control

Consider the worked cases shown below.
>>> observed_value("O=C(Nc1cccc(C2=NCCN2)c1)Nc1cccc(C2=NCCN2)c1 [Chemical 1598]")
"5.32 fold"
>>> observed_value("CC(=O)n1ccnc1 [Chemical #58, 1-Acetylimidazole]")
"0.17 fold"
>>> observed_value("Nc1c(Cl)c(Cl)nc(C(=O)O)c1Cl [Chemical 1561]")
"8.05 fold"
>>> observed_value("CON(C)C(=O)Nc1ccc(Cl)cc1 [Chemical 552]")
"5.31 fold"
>>> observed_value("Nc1c(Cl)ncnc1Cl [Chemical 1269]")
"0.91 fold"
>>> observed_value("COc1cc2oc(=O)cc(CBr)c2cc1OC [Chemical 2064]")
"1.10 fold"

**Query** Fill in the blank: the reported hGH fold induction relative to solvent control of N=c1ccc2nc3ccc(N)cc3sc-2c1 [Chemical 836] is ____.
**Result** 0.23 fold

**Query** Bench note: what hGH fold induction relative to solvent control did CN(C)C(=S)SCC#N [Chemical 1793] show?
**Result** 0.52 fold

**Query** Endpoint output: hGH fold induction relative to solvent control of Nc1ccccc1SSc1ccccc1N [Chemical 1482] . Value?
**Result** 0.54 fold

**Query** Endpoint output: hGH fold induction relative to solvent control of Nc1nc2nc[nH]c2c(=S)[nH]1 [Chemical 1521] . Value?
**Result** 0.73 fold

**Query** Quick one: hGH fold induction relative to solvent control for Nc1nc(=O)n([C@H]2C[C@H](O)[C@@H](CO)O2)cc1Br [Chemical #542, 5-Bromo-2'-deoxycytidine] ?
**Result** 1.08 fold

**Query** Item under review: ClCCCCCBr [Chemical 2097] . Reported hGH fold induction relative to solvent control?
**Result** 0.88 fold

**Query** Suppose we examine the compound CCCCCCCCCCCCCCCC(=O)OCC(COC(=O)CCCCCCCCCCCCCCC)OC(=O)CCCCCCCCCCCCCCC [Chemical 856] ; what hGH fold induction relative to solvent control value has been reported?
**Result** 6.49 fold

**Query** Quick one: hGH fold induction relative to solvent control of O=C(O)C1CCC1 [Chemical 1804] ?
**Result** 9.41 fold

###

test system: G-CSF promoter; test: G-CSF promoter/luciferase reporter assay (high-throughput screen I), G21 cells; settings: read-out: ED50 (concentration of chemical resulting in 50% maximal stimulation); G-CSF reporter cell line G21; range over the three chemicals
Metric: EC50

Some solved cases for reference:
>>> observed_value("CN(C)c1ccc(C(=C2C=CC(=[N+](C)C)C=C2)c2ccc(N(C)C)cc2)cc1")
"5 to 70 µM"
>>> observed_value("CN(C)c1ccc2cc3ccc(N(C)C)cc3nc2c1")
"5 to 70 µM"

**Query** What EC50 value was documented for this compound, `CN(C)c1ccc(C(=C2C=CC(=[N+](C)C)C=C2)c2ccc([N+](C)(C)C)cc2)cc1` ?
**Result** 5 to 70 µM

###

# GCSF fold induction relative to solvent control values compiled below
test system: G-CSF promoter; assay: G-CSF promoter/luciferase reporter assay (high-throughput screen I), G21 cells; details: transcriptional activators, Table 2; 6 h incubation
# number only, unit fold dropped from output

A selection of reference data follows.
>>> observed_value("CON(C)C(=O)Nc1ccc(Cl)cc1")
0.81
>>> observed_value("N[C@@H](CCCCNC(=O)OCc1ccccc1)C(=O)O")
0.78

Continue with the next molecule.
**Query** Consider the molecule shown here: `COc1cc2oc(=O)cc(CBr)c2cc1OC` What is its recorded GCSF fold induction relative to solvent control?
**Result** 0.82
